Assay: in vitro
Details: human, hela cells, % viability

compound: COC(=O)C(CCSC)NC(=O)c1ccc(C(F)(F)F)cc1 (stereo not shown) [CBK057452]
viability at 28.5 h, 10 µM, %: 91.9
//
compound: CN(C)CCCn1c(NCc2ccc3c(c2)OCO3)nc2ccccc21 [CBK278273C]
viability at 28.5 h, 10 µM, %: 94.4
//
compound: Cc1nc2ccccc2c(=O)n1CC(N)=O [CBK004145]
viability at 28.5 h, 10 µM, %: 89.8
//
compound: CC(C)C(CNCc1ccsc1)c1ccnn1C (stereo not shown) [CBK304821]
viability at 28.5 h, 10 µM, %: 93.9
//
compound: COc1cc(-c2cc(N3CCN(Cc4cccnc4)CC3)n3nccc3n2)cc(OC)c1OC [CBK037063]
viability at 28.5 h, 10 µM, %: 95.9
//
compound: Fc1ccc(-c2cncc(Nc3cccc(C(F)(F)F)c3)n2)c(F)c1 [CBK065763]
viability at 28.5 h, 10 µM, %: 92.5
//
compound: Cc1ccc(C)c(NC(=O)C(C)Sc2nc3ccccc3nc2C)c1 (stereo not shown) [CBK296744]
viability at 28.5 h, 10 µM, %: 106
//
compound: O=C(CSc1nc(-c2ccco2)cc(C(F)(F)F)n1)Nc1ccc(C(=O)N2CCCCC2)cc1 [CBK266238]
viability at 28.5 h, 10 µM, %: 101
//
compound: Cc1nc(N2CCCCC2)ncc1C(=O)NCc1nonc1C [CBK307243]
viability at 28.5 h, 10 µM, %: 87.7
//
compound: CC(C)(C)SCCOC(=O)C1CC(=O)N(Cc2ccccn2)C1 (stereo not shown) [CBK303991]
viability at 28.5 h, 10 µM, %: 90.8
//
compound: CCN1CC(C(=O)Nc2nc3c(s2)CCCCCC3)CC1=O (stereo not shown) [CBK281526]
viability at 28.5 h, 10 µM, %: 84.2
//
compound: CCCc1ccc(S(=O)(=O)N2CCN(CC(=O)Nc3cc(C(C)C)no3)CC2)cc1 [CBK295629]
viability at 28.5 h, 10 µM, %: 114
//
compound: CC(C(=O)O)N1C(=O)c2ccccc2C1c1c[nH]c2ccccc12 (stereo not shown) [CBK286576]
viability at 28.5 h, 10 µM, %: 106
//
compound: N#Cc1nc(-c2ccco2)oc1N1CCN(C(=O)c2cc3c(s2)CCCCC3)CC1 [CBK240763]
viability at 28.5 h, 10 µM, %: 93.9
//
compound: O=C(CC1CS(=O)(=O)CC1CC(=O)Nc1cccc(Cl)c1Cl)Nc1cccc(Cl)c1Cl (stereo not shown) [CBK262404]
viability at 28.5 h, 10 µM, %: 95.3
//
compound: O=C(c1cccs1)N1C[C@@H]2CCCCN(C3CCOCC3)[C@@H]2C1 [CBK285503]
viability at 28.5 h, 10 µM, %: 107
//
compound: CCN1CCCC1CNC(=O)C(=O)Nc1ccccc1OC (stereo not shown) [CBK266865]
viability at 28.5 h, 10 µM, %: 103
//
compound: CCc1ccc(Nc2nc(N)nc(CN3CCN(c4ccccn4)CC3)n2)cc1 [CBK270064]
viability at 28.5 h, 10 µM, %: 102
//
compound: CCN1CCCC1CNC(=O)c1cc(Br)cnc1N(C)C(C)=O (stereo not shown) [CBK076524]
viability at 28.5 h, 10 µM, %: 85.2

###

Experiment: in vitro
Details: human, hela cells, % viability
Listed next: entries and their corresponding viability at 28.5 h, 10 µM.
readout.name: viability at 28.5 h, 10 µM (%)

compound: N#CC1CCC(CNC(=O)c2sc3ccccc3c2Cl)CC1 (centres unmarked) [CBK010864]
value.measured: 106
//
compound: Cc1ccc(C(C)C)cc1OCC(=O)N/N=C\c1cc([N+](=O)[O-])ccc1O [CBK261206]
value.measured: 92.6
//
compound: COc1ccc(S(=O)(=O)N(C)CC(=O)Nc2ccc(Br)cc2F)cc1Cl [CBK267916]
value.measured: 81.3
//
compound: CSc1nc(-n2nc(C)cc2C)c2c3c(sc2n1)COC(C)(C)C3 [CBK268906]
value.measured: 89.7
//
compound: COc1ccc(CCNC(=O)C(N)=O)cc1OC [CBK288457]
value.measured: 90.9

###

Test: in vitro
Conditions: human, hela cells, % viability
Label t when viability at 28.5 h, 10 µM < 90%; otherwise f.

compound: O=S(=O)(c1ccccc1)c1cn2ccnc2c(N2CCNCC2)n1 [CBK200021T]
assigned.class: f
//
compound: CCCn1nc(C)c(-c2cncn2CC(C)N2CCCCC2)c1C (centres unmarked)
assigned.class: f
//
compound: O=C(Nc1nccs1)c1ncoc1-c1cccs1
assigned.class: f
//
compound: CCCCCCSc1ccc(C(=O)CCCN2CCOCC2)cc1
assigned.class: f
//
compound: O=S(=O)(Nc1cccc(-c2cnco2)c1)c1ccc(Br)cc1C(F)(F)F
assigned.class: f
//
compound: CCCc1cc(C(=O)Nc2nccs2)cs1
assigned.class: t
//
compound: O=c1c2ccccc2nc(CSc2[nH]cnc3ncnc2-3)n1-c1ccc(Cl)c(Cl)c1
assigned.class: f
//
compound: COc1ccc(C2CC(=O)C(=CNCCN3CCN(C(=O)c4ccccc4)CC3)C(=O)C2)cc1 (centres unmarked)
assigned.class: f
//
compound: Nc1ncc(-c2cccc(O)c2)nc1-c1ccc(C=O)cc1
assigned.class: f
//
compound: N#CC(N)c1c(Cl)cccc1Cl (centres unmarked) [CBK008288C]
assigned.class: f
//
compound: COc1cccc(CN2CCC3(C2)c2[nH]c4c(C)cccc4c2CCN3C(C)=O)c1 (centres unmarked)
assigned.class: t
//
compound: Cn1sc(=O)c2cc(S(=O)(=O)NC3CC3)ccc21
assigned.class: t
//
compound: COCCNC(=O)c1cnn2c(C)c(Cc3ccccc3C)c(C)nc12
assigned.class: f
//
compound: Cc1cc(N2C(=O)c3ccc(C(=O)O)cc3C2=O)ccc1NC(=O)c1cccs1
assigned.class: f
//
compound: COCCCn1c(=O)[nH]c2ncc(-c3cccc(NC(C)=O)c3)nc21
assigned.class: f
//
compound: Cn1ccc(C(=O)NCc2cccnc2OCC(F)(F)F)cc1=O
assigned.class: f

###

Test: in vitro
Conditions: human, hela cells, % viability
Label TRUE when viability at 28.5 h, 10 µM < 90%; otherwise FALSE.

molecule: COc1ccc([C@@]23CC[C@@H](NC(=O)c4ccc5c(c4)OC(F)(F)O5)C[C@@H]2N(C)CC3)cc1OC [CBK076658T]
assigned.class: FALSE
--
molecule: Cc1ncsc1CCOc1cc(N2CCCC2)ncn1 [CBK115895]
assigned.class: TRUE
--
molecule: OC1(c2cccnc2F)CCN(Cc2c(F)cccc2F)CC1 [CBK283149]
assigned.class: FALSE
--
molecule: Cn1c(=O)oc2ccc(C(=O)N3CCn4nc(CO)cc4C3)cc21 [CBK306821]
assigned.class: TRUE
--
molecule: Cc1nc2c(OCc3ccccc3)cccn2c1N(C)C(=O)C1CCCCC1 [CBK147884]
assigned.class: FALSE
--
molecule: NCCCOc1cncc(N2CCCC2)n1 [CBK115603]
assigned.class: FALSE
--
molecule: O=C(O)c1cc(S(=O)(=O)NCc2ccc(Cl)cc2Cl)ccc1O [CBK296924]
assigned.class: FALSE
--
molecule: Nc1nnc(SC2c3cccc4cccc(c34)C2NS(=O)(=O)c2ccc(Cl)cc2)s1 (stereo not shown) [CBK266373]
assigned.class: FALSE
--
molecule: O=S(=O)(c1ccc(-c2ccccc2)cc1)N1CCCN(CCCOC2CCCCO2)CC1 (stereo not shown) [CBK063137]
assigned.class: FALSE
--
molecule: C/C(=N\NC(=O)c1cccc(Cl)c1)c1ccccc1O [CBK261665]
assigned.class: TRUE
--
molecule: CCC1(O)C(C)C(c2ccc(Cl)cc2)NC(c2ccc(Cl)cc2)C1C (stereo not shown) [CBK025376C]
assigned.class: FALSE
--
molecule: COc1ccc(C(=O)N2CCC3(CCN(C(=O)Cc4c[nH]cn4)C3)C2)cc1OC (stereo not shown) [CBK131768]
assigned.class: FALSE
--
molecule: CCN1CCN(C(=O)CN(Cc2ccccc2)S(C)(=O)=O)CC1 [CBK266735]
assigned.class: FALSE
--
molecule: CC(C)(C)c1nnc2sc(-c3cccnc3)nn12 [CBK287289]
assigned.class: FALSE

###

Experiment: in vitro
Conditions: human, hela cells, % viability

compound: COc1cc(C2N(Cc3ccccc3)CCN2Cc2ccccc2)ccc1OC(C)=O
viability at 28.5 h, 10 µM / %: 89.2

compound: Cc1nc2ccccc2[nH]/c1=N/O
viability at 28.5 h, 10 µM / %: 104

compound: COc1cc(Nc2cc(-c3ccco3)ncn2)cc(OC)c1OC
viability at 28.5 h, 10 µM / %: 90.3

compound: O=C1CCCN1CC(=O)N1CCCC(c2cc3ccccc3cn2)C1 (stereo not shown)
viability at 28.5 h, 10 µM / %: 99.7

compound: COc1cc(Cn2c(=O)[nH]c3ncc(-c4ccco4)nc32)cc(OC)c1OC
viability at 28.5 h, 10 µM / %: 106

compound: COc1cccc(C(=O)N2CCC(c3cc4ncccc4[nH]3)CC2)c1
viability at 28.5 h, 10 µM / %: 117

compound: O=C(Cc1ccc(F)cc1)N1CCOC(Cn2ccnc2)C1 (stereo not shown)
viability at 28.5 h, 10 µM / %: 91

compound: CN(C(=O)c1c[nH]nc1C1CCCN(Cc2cc3ccccc3o2)C1)C1CCCCC1 (stereo not shown)
viability at 28.5 h, 10 µM / %: 102

compound: Nc1c(C(=O)NCc2ccccc2)c2nc3ccccc3nc2n1CCO
viability at 28.5 h, 10 µM / %: 108

compound: CN1CCN(C(=O)Cc2csc(-c3ccc(Cl)cc3)n2)CC1
viability at 28.5 h, 10 µM / %: 104
